The origin of these recorded values is the supplement of paper PMC10567573.

B1: KLHL14 (parent)
chain: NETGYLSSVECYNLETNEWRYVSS

# Variants of: B1
# test.details: protein stability index of a GFP-peptide fusion (GPS, HEK-293T) (PSI 1-6); higher = more stable;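 note: lentivirally expressed fusions sorted by FACS into six bins by GFP to DsRed ratio, PSI derived from sequencing read proportions per bin multiplied by bin number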
# run.conditions: c terminus: a fixed tail appended
outcome.measure: protein stability index

    variant_identifier          outcome_measure  measured_number
 0                T16C  protein stability index             3.58
 1                Y21K  protein stability index             2.89
 2                E10N  protein stability index             2.48
 3                 N1P  protein stability index             3.49
 4                S24Y  protein stability index             3.19
 5                T16M  protein stability index             2.66
 6                 T3H  protein stability index             3.12
 7                 L6F  protein stability index             2.87
 8                T16N  protein stability index             3.52
 9                S23K  protein stability index             3.27
10                 V9P  protein stability index             3.84
11                T16F  protein stability index             2.71
12                V22N  protein stability index             3.27
13                E15T  protein stability index             2.02
14                R20V  protein stability index             2.32
15                Y21D  protein stability index                4
16                 S7T  protein stability index             3.45
17                Y21P  protein stability index             3.21
18                 T3P  protein stability index             3.85
19                S23G  protein stability index             4.02
20                T16S  protein stability index              3.8
21                N13D  protein stability index             3.83
